Value source: patent US7582786B2

Tested on: Human dermal fibroblasts (HF cells)
Assay: Cell protection assay, tert-butylhydroperoxide (t-BHP) toxicity, XTT
Type: cell-based
Conditions: 2.5 μM; t-BHP 0.5 mM
ASSAY ENDPOINT: Cell viability, absorbance at 490 nm uncorrected for blank
Numbers only.

Answered cases to consult:
COc1cc(OC)c2c(c1)[O][Mn]([O]C(C)=O)[O]c1cc(OC)cc(OC)c1C=NCCN=C2	0.27
COc1cccc2c1[O][Mn]([O]C(C)=O)[O]c1c(cccc1OC)C=NCCN=C2	0.29
CC(=O)[O][Mn]1[O]c2c(F)cccc2C=NCCN=Cc2cccc(F)c2[O]1	0.28
COc1ccc2c(c1)C=NCCN=Cc1cc(OC)ccc1[O][Mn]([Cl])[O]2	0.28
Fc1cccc2c1[O][Mn]([Cl])[O]c1c(F)cccc1C=NCCN=C2	0.28

// for each compound below, give its Cell viability, absorbance at 490 nm uncorrected for blank
1. COc1ccc2c(c1)[O][Mn]([O]C(C)=O)[O]c1cc(OC)ccc1C=NCCN=C2
2. COc1ccc2c(c1)[O][Mn]([Cl])[O]c1cc(OC)ccc1C=NCCN=C2
3. [Cl][Mn]1[O]c2ccccc2C=NCCN=Cc2ccccc2[O]1
4. CC(=O)[O][Mn]1[O]c2ccccc2C=NCCN=Cc2ccccc2[O]1

Response:
[0.27, 0.27, 0.28, 0.28]

* * *

Would you kindly list Cell viability, absorbance at 490 nm uncorrected for blank for each of these compounds?
Tested on: Human dermal fibroblasts (HF cells)
Test: Cell protection assay, tert-butylhydroperoxide (t-BHP) toxicity, XTT
Assay type: cell-based
Details: 40 μM; t-BHP 0.5 mM
Numbers only.

Answered cases to consult:
COc1ccc2c(c1)[O][Mn]([Cl])[O]c1cc(OC)ccc1C=NCCN=C2 [Compound C34]	1.48
Fc1cccc2c1[O][Mn]([Cl])[O]c1c(F)cccc1C=NCCN=C2 [Compound C37]	1.53
[Cl][Mn]1[O]c2ccccc2C=NCCN=Cc2ccccc2[O]1 [Compound C7]	1.42

// for each compound below, give its Cell viability, absorbance at 490 nm uncorrected for blank
1. COc1ccc2c(c1)[O][Mn]([O]C(C)=O)[O]c1cc(OC)ccc1C=NCCN=C2 [Compound C33]
2. CC(=O)[O][Mn]1[O]c2ccccc2C=NCCN=Cc2ccccc2[O]1 [Compound C31]

Response:
1: 1.50; 2: 1.30

* * *

Tested on: Human dermal fibroblasts (HF cells)
Assay: Cell protection assay, tert-butylhydroperoxide (t-BHP) toxicity, XTT
Assay type: cell-based
Details: 20 μM; t-BHP 0.5 mM
ASSAY ENDPOINT: Cell viability, absorbance at 490 nm uncorrected for blank
Give bare numbers.

Answered cases to consult:
COc1cc(OC)c2c(c1)[O][Mn]([O]C(C)=O)[O]c1cc(OC)cc(OC)c1C=NCCN=C2 [Compound C35]	1.40
COc1ccc2c(c1)[O][Mn]([O]C(C)=O)[O]c1cc(OC)ccc1C=NCCN=C2 [Compound C33]	1.44
CC(=O)[O][Mn]1[O]c2c(F)cccc2C=NCCN=Cc2cccc(F)c2[O]1 [Compound C36]	1.44
COc1cccc2c1[O][Mn]([O]C(C)=O)[O]c1c(cccc1OC)C=NCCN=C2 [Compound C32]	1.43
Fc1cccc2c1[O][Mn]([Cl])[O]c1c(F)cccc1C=NCCN=C2 [Compound C37]	1.42
COc1ccc2c(c1)C=NCCN=Cc1cc(OC)ccc1[O][Mn]([Cl])[O]2 [Compound C41]	1.44
CC(=O)[O][Mn]1[O]c2ccccc2C=NCCN=Cc2ccccc2[O]1 [Compound C31]	1.40
COc1ccc2c(c1)[O][Mn]([Cl])[O]c1cc(OC)ccc1C=NCCN=C2 [Compound C34]	1.46

Lab note: next compound to report on.
Request: For [Cl][Mn]1[O]c2ccccc2C=NCCN=Cc2ccccc2[O]1 [Compound C7] , write its Cell viability, absorbance at 490 nm uncorrected for blank.
Response: 1.44

* * *

Would you kindly list MDA levels, percent of control for each of these compounds?
Test system: brain homogenates
Experiment: Iron-induced lipid peroxidation in brain homogenates (MDA)
Format: biochemical, rat
Conditions: 1 μM
Give bare numbers, in %.

Answered cases to consult:
CC(=O)[O][Mn]1[O]c2c(F)cccc2C=NCCN=Cc2cccc(F)c2[O]1	95
COc1ccc2c(c1)[O][Mn]([Cl])[O]c1cc(OC)ccc1C=NCCN=C2	97
COc1ccc2c(c1)[O][Mn]([O]C(C)=O)[O]c1cc(OC)ccc1C=NCCN=C2	98
COc1cccc2c1[O][Mn]([O]C(C)=O)[O]c1c(cccc1OC)C=NCCN=C2	104
CC(=O)[O][Mn]1[O]c2ccccc2C=NCCN=Cc2ccccc2[O]1	108
Fc1cccc2c1[O][Mn]([Cl])[O]c1c(F)cccc1C=NCCN=C2	94
[Cl][Mn]1[O]c2ccccc2C=NCCN=Cc2ccccc2[O]1	110

Lab note: next compound to report on.
Request: For COc1cc(OC)c2c(c1)[O][Mn]([O]C(C)=O)[O]c1cc(OC)cc(OC)c1C=NCCN=C2 , write its MDA levels, percent of control.
Response: 82

* * *

Assay: Peroxidase activity, H2O2-dependent oxidation of ABTS (Example 2)
Assay type: biochemical
Protocol: Peroxidase activity was assayed by monitoring the hydrogen peroxide-dependent oxidation of 2,2′-azino-bis(3-ethylbenzthiazoline-6) sulfonic acid (ABTS) spectrophotometrically. […] ABTS oxidation was monitored at 740 or 500 nm to eliminate interference by the salen manganese complexes, many of which absorb in the vicinity of the λmax of oxidized ABTS, and to avoid absorbance values that exceeded the linear range of the spectrophotometer. […]
ASSAY ENDPOINT: peroxidase activity (in words)

COc1cccc2c1[O][Mn]([O]C(C)=O)[O]c1c(cccc1OC)C=NCCN=C2 [Compound C32]	fastest peroxidases
COc1cccc2c1[O][Mn]([Cl])[O]c1c(cccc1OC)C=NCCN=C2 [Compound C40]	fastest peroxidases

* * *

Experiment: Catalase activity, decomposition of hydrogen peroxide monitored at 240 nm (Example 1)
Type: biochemical
Conditions: Example 1, H2O2 decomposition at 240 nm
ASSAY ENDPOINT: Catalase Activity (units/mM)
Give bare numbers, in units/mM.

Answered cases to consult:
[Cl][Mn]1[O]c2ccccc2C=NCCN=Cc2ccccc2[O]1	200
COc1cc2c(c(C(C)(C)C)c1)[O][Mn]([Cl])[O]c1c(cc(OC)cc1C(C)(C)C)C=NC1CCCCC1N=C2 (stereo not shown)	144
CC(C)(C)c1cc2c(c(C(C)(C)C)c1)[O][Mn]([Cl])[O]c1c(cc(C(C)(C)C)cc1C(C)(C)C)C=NC1CCCCC1N=C2 (stereo not shown)	179

Lab note: next compound to report on.
Request: For CC(C)(C)c1cc(Cl)cc2c1[O][Mn]([Cl])[O]c1c(cc(Cl)cc1C(C)(C)C)C=NC1CCCCC1N=C2 (stereo not shown) , write its Catalase Activity.
Response: 46

* * *

Test: Catalase activity, conversion of H2O2 to oxygen, polarographic oxygen electrode (Example 2)
Type: biochemical
Conditions: 10 μM salen manganese complex, 10 mM H2O2
Would you kindly list Endpoint for each of these compounds?
Numbers only, in maximal μM O2.

CC(=O)[O][Mn]1[O]c2c(F)cccc2C=NCCN=Cc2cccc(F)c2[O]1	27.9
COc1ccc2c(c1)[O][Mn]([Cl])[O]c1cc(OC)ccc1C=NCCN=C2	11.9
COc1cccc2c1[O][Mn]([O]C(C)=O)[O]c1c(cccc1OC)C=NCCN=C2	90.1
COc1ccc2c(c1)[O][Mn]([O]C(C)=O)[O]c1cc(OC)ccc1C=NCCN=C2	12.6
COc1cc(OC)c2c(c1)[O][Mn]([O]C(C)=O)[O]c1cc(OC)cc(OC)c1C=NCCN=C2	10.5

// for each compound below, give its Endpoint
1. [Cl][Mn]1[O]c2ccccc2C=NCCN=Cc2ccccc2[O]1
2. CC(=O)[O][Mn]1[O]c2ccccc2C=NCCN=Cc2ccccc2[O]1
3. COc1ccc2c(c1)C=NCCN=Cc1cc(OC)ccc1[O][Mn]([Cl])[O]2
4. Fc1cccc2c1[O][Mn]([Cl])[O]c1c(F)cccc1C=NCCN=C2

Response:
32.3
29.6
83.5
28.3

* * *

Assay: SOD activity, xanthine/xanthine oxidase with cytochrome C as acceptor (Example 2)
Type: biochemical
Conditions: relative to C7 (C7 = 100)
ASSAY ENDPOINT: SOD
Give bare numbers.

Answered cases to consult:
CC(=O)[O][Mn]1[O]c2c(F)cccc2C=NCCN=Cc2cccc(F)c2[O]1	104
CC(=O)[O][Mn]1[O]c2cc(O)ccc2C=NCCN=Cc2ccc(O)cc2[O]1	61

Lab note: next compound to report on.
Request: For CC(=O)[O][Mn]1[O]c2c(O)cccc2C=NCCN=Cc2cccc(O)c2[O]1 , write its SOD.
Response: 75

* * *

Assay: Catalase activity, conversion of H2O2 to oxygen, polarographic oxygen electrode (Example 2)
Type: biochemical
Conditions: 10 μM salen manganese complex, 10 mM H2O2
ASSAY ENDPOINT: Catalase rate (μM O2/min)
One number for each entry, in μM O2/min.

COc1ccc2c(c1)[O][Mn]([O]C(C)=O)[O]c1cc(OC)ccc1C=NCCN=C2 [Compound C33]	53.9

// for each molecule below, give its Catalase rate
1. CC(=O)[O][Mn]1[O]c2ccccc2C=NCCN=Cc2ccccc2[O]1 [Compound C31]
2. COc1cccc2c1[O][Mn]([O]C(C)=O)[O]c1c(cccc1OC)C=NCCN=C2 [Compound C32]

Response:
131.9
295.0

// for each molecule below, give its Catalase rate
1. COc1ccc2c(c1)[O][Mn]([Cl])[O]c1cc(OC)ccc1C=NCCN=C2 [Compound C34]
2. COc1ccc2c(c1)C=NCCN=Cc1cc(OC)ccc1[O][Mn]([Cl])[O]2 [Compound C41]

Response:
66.4
172.2
